# experimentalTarget: T1, Med25-ACID_(532-680), activator interaction domain (ACID) of mediator complex subunit 25 (Arabidopsis thaliana, UniProt Q7XYY2 532-680)
# T1 construct: 15N- or 13C,15N-labelled in the NMR titrations; unlabelled in ITC, CEST and stopped-flow; also called AtMed25-ACID; ACID domain; source: E. coli BL21 DE3, purified (glutathione Sepharose, TEV cleavage, cation exchange, SEC); not shown: GST, N-terminal, cleaved
# T1 sequence (looked up): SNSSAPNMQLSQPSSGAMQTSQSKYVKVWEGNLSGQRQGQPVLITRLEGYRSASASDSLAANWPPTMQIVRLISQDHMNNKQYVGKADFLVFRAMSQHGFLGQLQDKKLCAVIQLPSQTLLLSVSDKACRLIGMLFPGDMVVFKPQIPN
# experimentSummary: ITC; 25 °C; 50 mM HEPES pH 7.4, 100 mM NaCl, 0.5 mM TCEP; ~1:10 cell to syringe concentration ratio, cell around 15 µM for high-affinity fragments; one-set-of-sites model; which protein was in the cell is not stated
# condition: both partners purified
pKd: −log10 of the molar value.
measure: pKd

# binder, experimentalResult
rows = [
    ("QDSLSVADYGWPNDVDQSHLDSSDMFDVDELLRDLNGDDVFAG (domain or fragment, Arabidopsis thaliana, UniProt O82132 234-276, looked up, 13C,15N-labelled in the CEST experiments; Populates cis (30 ± 1%) and trans Trp244-Pro245 isomers in the free state; also called bivalent ABS-RIM fragment; source: E. coli BL21 DE3, purified (glutathione Sepharose, TEV cleavage, SEC); not shown: GST, N-terminal, cleaved) [DREB2A_(234-276) (ABS-RIM)]", 6.28),
]

Measured values drawn from paper PMC10796322 for this set.
